Please go through the items and note down their MIC.
test system: B. anthranis SS 09; assay type: cell-based; conditions: B. anthranis SS 09 (14 bis); Brain Heart Infusion; estolate and RV11-RV15 previously hydrolized; unit assumed
Answer with the number, then the unit.

Solved entries (count: 2):
CCC(=O)O[C@H]1[C@H](O[C@@H]2[C@@H](C)[C@H](O[C@H]3C[C@@](C)(OC)[C@@H](O)[C@H](C)O3)[C@@H](C)C(=O)O[C@H](CC)[C@@](C)(O)[C@H](O)[C@@H](C)C(=O)[C@H](C)C[C@@]2(C)O)O[C@H](C)C[C@@H]1N(C)C [RV15] : 0.4 µg/mL
CC[C@H]1OC(=O)[C@H](C)[C@@H](O[C@H]2C[C@@](C)(OC)[C@@H](O)[C@H](C)O2)[C@H](C)[C@@H](O[C@@H]2O[C@H](C)C[C@H](N(C)C)[C@H]2O)[C@](C)(O)C[C@@H](C)C(=O)[C@H](C)[C@@H](O)[C@]1(C)O [RV01, erythromycin alpha-mercaptosuccinate] : 0.4 µg/mL

Next compound, please.
// query Any idea what MIC was measured for CC[C@H]1OC(=O)[C@H](C)[C@@H](O[C@H]2C[C@@](C)(OC)[C@@H](O)[C@H](C)O2)[C@H](C)[C@@H](O[C@@H]2O[C@H](C)C[C@H](N(C)C)[C@H]2O)[C@](C)(O)C[C@@H](C)C(=O)[C@H](C)[C@@H](O)[C@]1(C)O [RV05, erythromycin-N-acetylcysteinate] ?
// result 0.4 µg/mL

====

test: Hematic levels in the rat (absorption by oral route); conditions: 5 hours, 100 mg/kg as erythromycin, average, 100 mg/kg, 300 min
TEST READOUT: Hematic levels in the rat (µg/mL)
Give bare numbers, in µg/mL.

CC[C@H]1OC(=O)[C@H](C)[C@@H](O[C@H]2C[C@@](C)(OC)[C@@H](O)[C@H](C)O2)[C@H](C)[C@@H](O[C@@H]2O[C@H](C)C[C@H](N(C)C)[C@H]2O)[C@](C)(O)C[C@@H](C)C(=O)[C@H](C)[C@@H](O)[C@]1(C)O [RV04, erythromycin-S-carboxymethylcysteinate] : 0.43

Give Hematic levels in the rat for all compounds that follow.
1. CC[C@H]1OC(=O)[C@H](C)[C@@H](O[C@H]2C[C@@](C)(OC)[C@@H](O)[C@H](C)O2)[C@H](C)[C@@H](O[C@@H]2O[C@H](C)C[C@H](N(C)C)[C@H]2O)[C@](C)(O)C[C@@H](C)C(=O)[C@H](C)[C@@H](O)[C@]1(C)O [RV05, erythromycin-N-acetylcysteinate]
2. CC[C@H]1OC(=O)[C@H](C)[C@@H](O[C@H]2C[C@@](C)(OC)[C@@H](O)[C@H](C)O2)[C@H](C)[C@@H](O[C@@H]2O[C@H](C)C[C@H](N(C)C)[C@H]2O)[C@](C)(O)C[C@@H](C)C(=O)[C@H](C)[C@@H](O)[C@]1(C)O [RV01, erythromycin alpha-mercaptosuccinate]
3. CC[C@H]1OC(=O)[C@H](C)[C@@H](O[C@H]2C[C@@](C)(OC)[C@@H](O)[C@H](C)O2)[C@H](C)[C@@H](O[C@@H]2O[C@H](C)C[C@H](N(C)C)[C@H]2O)[C@](C)(O)C[C@@H](C)C(=O)[C@H](C)[C@@H](O)[C@]1(C)O [RV03, erythromycyn-thiazolidin-carboxylate]

// result
1. 0.40
2. 0.24
3. 0.36

Provenance of the data: patent US4476120A
